# test target: T1, biotinylated human BCMA-Fc, Avitag recombinant protein (ACRO Biosystems, #BC7-H82F0) (human, UniProt Q02223 1-54, biotinylated)
# T1 construct: extracellular domain; Bought protein; also called human BCMA protein; recombinant human BCMA-ECD-Fc; not shown: Fc of the bought fusion protein; Avitag
# T1 sequence (looked up): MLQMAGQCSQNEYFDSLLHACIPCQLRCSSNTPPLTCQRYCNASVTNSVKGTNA
# assay summary: BLI, dissociation rate relative to the original molecule PR001046 VH
measurement label: Kdis fold
Form rule: numeric answer, no unit written next to it.

Kdis fold measured on PR004560, PR001046 VH-derived single-domain variant 1046-R2-10F1 (VHH, Tested as VH single domain with Flag and His tags; not shown: Flag and His tags) VHH: EVQLVETGGGLIQPGGSLRLSCAASGFTVSDAYMTWVRQAPGKGLEWVSVIFSGGNTYVSDSVKGRFTISRDNAKNTLYLQMNSLRAEDTALYYCARRNYDQTRGTDVFDIWGQGTMVTVSS = 0.43

Kdis fold measured on PR004570, PR001046 VH-derived single-domain variant 1046-R2-6D6 (VHH, Tested as VH single domain with Flag and His tags; not shown: Flag and His tags) VHH: EVQLVETGGGLIQPGGSLRLSCAASGFTVSDAYMTWVRQAPGKGLEWVSVIFSGGRTYYADSVKGRFTISRDNAKNTLYLQMNSLRAEDTALYYCARRNYDQTRGTDVFDIWGQGTMVTVSS = 0.34

Kdis fold measured on PR004563, PR001046 VH-derived single-domain variant 1046-R2-1A1 (VHH, Tested as VH single domain with Flag and His tags; not shown: Flag and His tags) VHH: EVQLVETGGGLIQPGGSLRLSCAASGFTVYDNYMTWVRQAPGKGLEWVSVIFSGGKTYVADSVKGRFTISRDNAKNTLYLQMNSLRAEDTALYYCARRNYDQTRGTDVFDIWGQGTMVTVSS = 0.37

Kdis fold measured on PR004559, PR001046 VH-derived single-domain variant 1046-R1-12G7 (VHH, Tested as VH single domain with Flag and His tags; also called PR001046-R1-12G7; not shown: Flag and His tags) VHH: EVQLVETGGGLIQPGGSLRLSCAASGFTVSDNYMTWVRQAPGKGLEWVSVIFSGGKTYYADSVKGRFTISRDNAKNTLYLQMNSLRAEDTALYYCARRNYDDTRGTDVFDIWGQGTMVTVSS = 0.54
